Target: T1, human GIPR (glucose-dependent insulinotropic polypeptide receptor) (human, UniProt P48546 22-466)
T1 sequence (looked up): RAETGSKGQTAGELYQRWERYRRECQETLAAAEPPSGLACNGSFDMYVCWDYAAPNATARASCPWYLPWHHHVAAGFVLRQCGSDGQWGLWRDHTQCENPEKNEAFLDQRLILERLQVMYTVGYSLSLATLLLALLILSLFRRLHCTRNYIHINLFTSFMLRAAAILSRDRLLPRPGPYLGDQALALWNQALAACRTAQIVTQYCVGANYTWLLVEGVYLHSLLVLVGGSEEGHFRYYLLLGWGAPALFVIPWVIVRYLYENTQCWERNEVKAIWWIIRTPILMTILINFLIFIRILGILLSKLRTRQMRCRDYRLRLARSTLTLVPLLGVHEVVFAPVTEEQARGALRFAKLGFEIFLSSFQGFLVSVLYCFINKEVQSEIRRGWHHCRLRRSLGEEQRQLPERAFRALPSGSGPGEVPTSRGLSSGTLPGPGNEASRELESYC
Test: cell-based or functional assay
*1 amine or outer side, *2 acyl side, *3 side chain or, on linkers, in order; H or OH if unused. Where no end group is shown, it is not given here. Side-chain parts run from the residue outwards. [ ]: non-standard residue; d: D form. The star is where a group is joined. C18 diacid = O=C(O)CCCCCCCCCCCCCCCCC(=O)*; γGlu = O=C(O)[C@H](CCC(=O)[*:2])N[*:1]; AEEA = NCCOCCOCC(=O)O; Aib = CC(C)(N)C(=O)O
Answer each item with its documented cAMP assay: Efficacy GIPR.
Provide the reading as a plain figure in %.

For HXDGTFISDYSTILDNLAARDFINWLIQTKITK (Aib at 2; K(C10) at 33 (C-terminal residue); C-terminus -OH) [Compound no. 63] , write its cAMP assay: Efficacy GIPR.
99

Assign cAMP assay: Efficacy GIPR to the following record: HXDGTFISDYSTXLDNLAARDFINWLIQTKITK (Aib at 2 and 13; K(C10) at 33 (C-terminal residue); C-terminal amide (-NH2)) [Compound no. 65]
107

Give cAMP assay: Efficacy GIPR for HADGTFISDYST[Aib]LDK([AEEA-AEEA-γGlu-C18 diacid])LAARDFINWLIQTKGKK [Compound no. 62]
86

State its cAMP assay: Efficacy GIPR for this binder: HADGTFISDYSTILDNLAARDFINWLIQTKGKK([AEEA-AEEA-γGlu-C18 diacid]) (also: K33: γGlu-C18-diacid linker 2xAEEA-γGlu) [Compound no. 60]
93

Name the recorded cAMP assay: Efficacy GIPR of the binder listed here: HGEGSFGSDMSIALDKLAARDFVNWLLQTKITD (also: C14 fatty acid at C-terminus, attachment not given here) [Compound no. 66]
97
